Assay: Cytotoxicity against mock-infected human CEM cells assessed as reduction of cell viability after 4 days
Assay type: cell-based
Conditions: mock-infected CEM (CCRF-CEM) cells
Measured CC50 at 96 h, listed per entry.
measured_attribute: CC50 at 96 h

| structure_string | measured_attribute | reported |
| --- | --- | --- |
| Cc1cn([C@@H]2O[C@H](CO[Si](C)(C)C(C)(C)C)[C@@]3(NS(=O)(=O)C(c4ccccc4)=C3N)[C@H]2O[Si](C)(C)C(C)(C)C)c(=O)[nH]c1=O | CC50 at 96 h | ≥ 10 µM |
| CCn1c(=O)c(C)cn([C@@H]2O[C@H](CO[Si](C)(C)C(C)(C)C)[C@@]3(NS(=O)(=O)C(c4ccccc4)=C3N)[C@H]2O[Si](C)(C)C(C)(C)C)c1=O | CC50 at 96 h | ≥ 10 µM |
| Cc1cn([C@@H]2O[C@H](CO[Si](C)(C)C(C)(C)C)[C@]3(C(N)=C(c4ccccc4)S(=O)(=O)N3C)[C@H]2O[Si](C)(C)C(C)(C)C)c(=O)n(C)c1=O | CC50 at 96 h | 10.9 µM |
| Cc1cn([C@@H]2O[C@H](CO[Si](C)(C)C(C)(C)C)[C@@]3(NS(=O)(=O)C(c4ccccc4)=C3N)[C@H]2O[Si](C)(C)C(C)(C)C)c(=O)n(C)c1=O | CC50 at 96 h | ≥ 10 µM |
